Where these numbers come from: patent US11952330B2

# Test system: S. aureus
# Experiment description: MIC by broth dilution, S. aureus
# Assay type: cell-based
# Run parameters: Staphylococcus aureus; Mueller-Hinton broth, overnight 37° C.; Table 1; read-out: MIC (μg/mL) S. aureus
# Protocol: The antibacterial efficacy of the ammonium compounds was assessed. Minimum inhibitory concentrations (MICs) were determined by broth dilution method. […] The following day, plates were evaluated for a visual change in growth to determine the MIC. The concentration value corresponding to the first row that no longer had visible bacterial growth, as evaluated by turbidity in the wells, was recorded as the MIC. […] The antibacterial efficacy of ammonium compounds in the presence of human plasma was assessed. […]
compounds and their reported MIC

Return MIC (reported value) for this compound: CCCCCCCCCCCCCOc1ccccc1C(=O)Nc1ccc(C(=O)OCC[N+](C)(CC)CC)cc1.[Br-]
< 3 µg/mL

Return MIC (reported value) for this compound: CCCCCCCCOc1ccccc1C(=O)Nc1ccccc1C(=O)OCC[N+](C)(CC)CC.[Br-]
3 to 30 µg/mL

----------
compounds and their reported MIC
# Tested on: S. aureus
# Experiment description: MIC by broth dilution, S. aureus
# Format: cell-based
# Run parameters: Staphylococcus aureus; Mueller-Hinton broth, overnight 37° C.; Table 1; read-out: MIC (μg/mL) S. aureus

                                   compound  measurement_kind  obs_value
0  CCCCCCCCOc1ccccc1C(=O)Nc1ccc(C(=O)OCC[N+](CC)(CC)Cc2cccc(OC)c2)cc1.[Br-]               MIC  < 3 µg/mL

Let's switch to this compound now.
Return MIC (reported value) for this compound: CCCCCCCOc1ccccc1C(=O)Nc1ccc(C(=O)OCC[N+](CC)(CC)CCC)cc1.[Br-]
3 to 30 µg/mL

----------
compounds and their reported MIC
# Test system: S. aureus
# Experiment description: MIC by broth dilution, S. aureus
# Assay type: cell-based
# Run parameters: Staphylococcus aureus; Mueller-Hinton broth, overnight 37° C.; Table 1; read-out: MIC (μg/mL) S. aureus
# Method: The antibacterial efficacy of the ammonium compounds was assessed. Minimum inhibitory concentrations (MICs) were determined by broth dilution method. […] The following day, plates were evaluated for a visual change in growth to determine the MIC. The concentration value corresponding to the first row that no longer had visible bacterial growth, as evaluated by turbidity in the wells, was recorded as the MIC. […] The antibacterial efficacy of ammonium compounds in the presence of human plasma was assessed. […]

Answered examples (5):
>>> df
                                   compound      obs_value
0  CCCCCCCCOc1ccccc1C(=O)Nc1ccc(C(=O)NC2CC[N+](C)(CCC)CC2)cc1.[Br-] (stereo not drawn)  3 to 30 µg/mL
1  CCCCCOc1ccccc1C(=O)Nc1ccc(C(=O)OCC[N+](C)(CC)CC)cc1.[Br-]     > 30 µg/mL
2  CCCCCCCCOc1ccccc1C(=O)Nc1ccc(C(=O)OCC[N+](CC)(CC)Cc2ccc(C(=O)OC)cc2)cc1.[Br-]      < 3 µg/mL
3  CCCCCCCCOc1ccccc1C(=O)Nc1ccc(C(=O)OCC[N+](CC)(CC)CC2CCCC2)cc1.[Br-]      < 3 µg/mL
4  CCCC(CCC)Oc1ccccc1C(=O)Nc1ccc(C(=O)OCC[N+](C)(CC)CC)cc1.[Br-]  3 to 30 µg/mL

Let's switch to this compound now.
Return MIC (reported value) for this compound: CCCCCCOc1ccccc1C(=O)Nc1ccc(C(=O)OCC[N+](C)(CC)CC)cc1.[Br-]
3 to 30 µg/mL

----------
# Test system: S. aureus
# Experiment description: MIC by broth dilution, S. aureus
# Type: cell-based
# Run parameters: Staphylococcus aureus; Mueller-Hinton broth, overnight 37° C.; Table 1; read-out: MIC (μg/mL) S. aureus
Measurement kind: MIC

>>> df
                         chemical_structure  measurement_kind      obs_value
0  CCCCCCCCOc1cccc(F)c1C(=O)Nc1ccc(C(=O)OCC[N+](C)(CC)CC)cc1.[Br-]               MIC  3 to 30 µg/mL

Return MIC (reported value) for this molecule: CCCCCOc1ccccc1C(=O)Nc1ccc(C(=O)OCC[N+](CC)(CC)CCC)cc1.[Br-]
3 to 30 µg/mL

Return MIC (reported value) for this molecule: CCCCCCCCOc1ccccc1C(=O)Nc1ccc(C(=O)OCCC[N+](C)(CC)CC)cc1.[I-]
3 to 30 µg/mL

Return MIC (reported value) for this molecule: CCCCCCOc1ccccc1C(=O)Nc1ccc(S(=O)(=O)NCC[N+](CC)(CC)CCCCC)cc1.[Br-]
3 to 30 µg/mL

Return MIC (reported value) for this molecule: CCCCCCCCOc1cccc(C(=O)Nc2ccc(C(=O)OCC[N+](C)(CC)CC)cc2)c1.[Br-]
3 to 30 µg/mL

Return MIC (reported value) for this molecule: CCCCCOc1ccccc1C(=O)Nc1ccc(C(=O)OCC[N+](CC)(CC)CCCCC)cc1.[Br-]
3 to 30 µg/mL

Return MIC (reported value) for this molecule: CCCCCCCCOc1ccccc1C(=O)Nc1ccc(C(=O)OCC[N+](CC)(CC)Cc2cccc(F)c2)cc1.[Br-]
< 3 µg/mL

Return MIC (reported value) for this molecule: CCCCCCCCOc1ccccc1C(=O)Nc1ccc(C(=O)NC2CC[N+](CCC)(CCC)CC2)cc1.[Br-]
3 to 30 µg/mL

Return MIC (reported value) for this molecule: CCCCCCCCOc1ccccc1C(=O)Nc1ccc(C(=O)OCC[N+](CC)(CC)CCC(C)(C)C)cc1.[Br-]
< 3 µg/mL
